Consider the following compounds and their measured mortality at 0.05 µg/cm2 readings.
# System: Beet Armyworm (Spodoptera exigua)
# test description: Bioassay on Beet Armyworm (BAW), 128-well diet tray assay
# Format: in vivo
# test context: 168 h, 0.05 μg/cm^2 on artificial diet, second instar larvae, five to seven days, read-out: BAW Percent control (or mortality)
readout kind: mortality at 0.05 µg/cm2 (%)

| compound | experimental target | assay value |
| --- | --- | --- |
| O=C(CNC(=O)c1ccc(/C(F)=C/C(c2cc(Cl)c(Cl)c(Cl)c2)C(F)(F)F)cc1Cl)NCC(F)(F)F (centres unmarked) [F22] | Beet Armyworm (Spodoptera exigua) | 100 |
| C[C@@H](NC(=O)c1ccc(/C(F)=C/C(c2cc(Cl)c(Cl)c(Cl)c2)C(F)(F)F)cc1I)C(=O)NCC(F)(F)F (some centres unmarked) [F67] | Beet Armyworm (Spodoptera exigua) | 100 |
| O=C(CNC(=O)c1ccc(/C(F)=C/C(c2cc(Cl)c(Cl)c(Cl)c2)C(F)(F)F)cc1)NCC(F)(F)F (centres unmarked) [FC1] | Beet Armyworm (Spodoptera exigua) | 0 |
| C[C@@H](NC(=O)c1ccc(/C(F)=C/C(c2cc(Cl)c(Cl)c(Cl)c2)C(F)(F)F)cc1C(F)(F)F)C(=O)NCC(F)(F)F (some centres unmarked) [F2] | Beet Armyworm (Spodoptera exigua) | 100 |
| C[C@@H](NC(=O)c1ccc(/C(F)=C/C(c2cc(Cl)c(Cl)c(Cl)c2)C(F)(F)F)cc1Cl)C(=O)NCC(F)(F)F (some centres unmarked) [F23] | Beet Armyworm (Spodoptera exigua) | 81 |
| C[C@@H](NC(=O)c1ccc(/C(F)=C/C(c2cc(Cl)c(Cl)c(Cl)c2)C(F)(F)F)cc1Br)C(=O)NCC(F)(F)F (some centres unmarked) [F18] | Beet Armyworm (Spodoptera exigua) | 100 |
| O=C(CNC(=O)c1ccc(/C(F)=C/C(c2cc(Cl)c(Cl)c(Cl)c2)C(F)(F)F)cc1Br)NCC(F)(F)F (centres unmarked) [F19] | Beet Armyworm (Spodoptera exigua) | 100 |
| C[C@@H](NC(=O)c1ccc(/C(F)=C/C(c2cc(Cl)c(Cl)c(Cl)c2)C(F)(F)F)cc1)C(=O)NCC(F)(F)F (some centres unmarked) [FC2] | Beet Armyworm (Spodoptera exigua) | 0 |
| Cc1cc(/C(F)=C/C(c2cc(Cl)c(Cl)c(Cl)c2)C(F)(F)F)ccc1C(=O)NCC(=O)NCC(F)(F)F (centres unmarked) [F6] | Beet Armyworm (Spodoptera exigua) | 100 |
| O=C(CNC(=O)c1ccc(/C(F)=C/C(c2cc(Cl)c(Cl)c(Cl)c2)C(F)(F)F)cc1C(F)(F)F)NCC(F)(F)F (centres unmarked) [F1] | Beet Armyworm (Spodoptera exigua) | 100 |
| Cc1cc(/C(F)=C/C(c2cc(Cl)c(Cl)c(Cl)c2)C(F)(F)F)ccc1C(=O)N[C@H](C)C(=O)NCC(F)(F)F (some centres unmarked) [F7] | Beet Armyworm (Spodoptera exigua) | 100 |
